MEASUREMENT_NOTES: in vitro
CONDITION: human, hela cells, % viability
VALUE_KIND: viability at 28.5 h, 10 µM

# example entries with known answers
| COMPOUND | VALUE_KIND | ENDPOINT_RESULT |
| --- | --- | --- |
| O=C(C1=C(O)C(=O)N(CCCN2CCOCC2)C1c1cccnc1)c1ccco1 (stereo not drawn) [CBK264528] | viability at 28.5 h, 10 µM | 102% |
| c1ccc(-c2nnc(COc3ccc(-c4cnc5ccccc5n4)cc3)o2)cc1 [CBK269707] | viability at 28.5 h, 10 µM | 90.4% |
| Cc1c(C(=O)Nc2ccc(S(=O)(=O)N(C)Cc3ccccc3)cc2)cccc1[N+](=O)[O-] [CBK267534] | viability at 28.5 h, 10 µM | 109% |
| CC(=O)c1sc(NC(=O)Cc2ccc(C)cc2)nc1C [CBK287760] | viability at 28.5 h, 10 µM | 89.3% |

Kindly review the next compound as well.
Reported viability at 28.5 h, 10 µM for Cc1cc(C)c(NC(=O)CSc2nnc(-c3cccnc3)s2)c([N+](=O)[O-])c1 [CBK268929] : what is it?
102%
